MEASURED TARGET: human recombinant HDAC6 (Homo sapiens)
Construct: purchased BPS Bioscience, CA
ASSAY TEXT: HDAC activity assay (fluorogenic HDAC assay kit), HDAC6
Type: biochemical
SETTINGS: ratio of IC50 HDAC2 to IC50 HDAC6
Returns label 1 if the recorded Selectivity index HDAC6/2 is greater than or equal to 2, and label 0 otherwise.

Observe how each entry below is paired with its result.
SMILES	GROUP LABEL
C[C@H]1COc2c(N3CCN(C)CC3)c(F)cc3c(=O)c(C(=O)NCc4cn(CCCCCC(=O)NO)nn4)cn1c23	label 0
C[C@H]1COc2c(N3CCN(C)CC3)c(F)cc3c(=O)c(C(=O)OCc4cn(CCCCCC(=O)NO)nn4)cn1c23	label 1
C[C@H]1COc2c(N3CCN(C)CC3)c(F)cc3c(=O)c(C(=O)NCc4cn(CCCCCCCC(=O)O)nn4)cn1c23	label 1

Read the next record carefully.
Q: Answer whether Selectivity index HDAC6/2 of C[C@H]1COc2c(N3CCN(C)CC3)c(F)cc3c(=O)c(C(=O)NCc4cn(CCCCCCCC(=O)NO)nn4)cn1c23 is greater than or equal to 2.
Result: label 0

====

MEASURED TARGET: human recombinant HDAC6 (Homo sapiens, UniProt Q9UBN7)
ASSAY TEXT: HDAC activity assay (fluorogenic HDAC assay kit), HDAC6;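 note: underlying HDAC activity read as fluorescence, excitation 350 nm and emission 440 nm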
SETTINGS: human recombinant HDAC6, 37 °C, 30 min
MEASURED METRIC: pIC50
Recall that pIC50 is obtained by taking minus log10 of the concentration measured in molar.

Q: Quick check: pIC50 of C[C@H]1COc2c(N3CCN(C)CC3)c(F)cc3c(=O)c(C(=O)OCc4cn(CCCCCC(=O)NO)nn4)cn1c23 [Compound 8a] ?
Result: 7.37

Q: Return reported pIC50; argument: C[C@H]1COc2c(N3CCN(C)CC3)c(F)cc3c(=O)c(C(=O)OCc4cn(CCCCCC(=O)O)nn4)cn1c23 [Compound 6a]
Result: 5.68

====

MEASURED TARGET: human recombinant HDAC6 (Homo sapiens)
Construct: purchased BPS Bioscience, CA
Sequence (Q9UBN7 1-1215): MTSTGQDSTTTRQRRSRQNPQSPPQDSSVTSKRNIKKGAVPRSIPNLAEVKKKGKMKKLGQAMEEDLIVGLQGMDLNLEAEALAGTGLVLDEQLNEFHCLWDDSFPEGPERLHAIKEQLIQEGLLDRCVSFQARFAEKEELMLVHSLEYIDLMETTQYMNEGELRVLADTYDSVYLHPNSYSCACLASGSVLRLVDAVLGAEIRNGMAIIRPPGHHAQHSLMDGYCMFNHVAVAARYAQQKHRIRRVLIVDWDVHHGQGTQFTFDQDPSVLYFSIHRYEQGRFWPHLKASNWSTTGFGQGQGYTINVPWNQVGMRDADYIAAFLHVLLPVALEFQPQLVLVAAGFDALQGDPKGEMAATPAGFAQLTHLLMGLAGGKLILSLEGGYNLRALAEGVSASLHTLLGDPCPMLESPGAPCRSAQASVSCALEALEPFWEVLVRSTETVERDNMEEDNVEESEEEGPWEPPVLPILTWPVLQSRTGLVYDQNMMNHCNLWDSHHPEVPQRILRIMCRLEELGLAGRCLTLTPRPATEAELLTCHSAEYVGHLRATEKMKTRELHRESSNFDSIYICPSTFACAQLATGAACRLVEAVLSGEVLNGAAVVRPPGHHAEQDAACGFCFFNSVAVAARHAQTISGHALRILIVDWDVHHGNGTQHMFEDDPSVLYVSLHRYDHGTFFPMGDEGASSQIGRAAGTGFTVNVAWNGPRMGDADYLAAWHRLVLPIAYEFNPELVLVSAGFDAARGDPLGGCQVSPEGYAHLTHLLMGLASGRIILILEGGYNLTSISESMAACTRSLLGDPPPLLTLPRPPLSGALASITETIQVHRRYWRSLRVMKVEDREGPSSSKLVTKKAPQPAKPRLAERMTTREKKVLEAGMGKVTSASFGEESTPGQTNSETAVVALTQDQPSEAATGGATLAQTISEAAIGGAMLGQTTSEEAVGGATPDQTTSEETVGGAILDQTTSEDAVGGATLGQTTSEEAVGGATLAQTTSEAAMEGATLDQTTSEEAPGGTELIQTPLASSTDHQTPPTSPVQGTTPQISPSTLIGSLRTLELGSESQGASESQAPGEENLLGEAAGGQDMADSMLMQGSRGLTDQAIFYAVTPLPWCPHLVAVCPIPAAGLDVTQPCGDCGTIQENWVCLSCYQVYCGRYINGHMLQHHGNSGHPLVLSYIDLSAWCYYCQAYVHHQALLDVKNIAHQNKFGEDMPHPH
ASSAY TEXT: HDAC activity assay (fluorogenic HDAC assay kit), HDAC6
Format: biochemical
SETTINGS: ratio of IC50 HDAC1 to IC50 HDAC6
MEASURED METRIC: Selectivity index HDAC6/1
// return a plain number; no unit text

COMPOUND	MEASURED TARGET	Selectivity index HDAC6/1
C[C@H]1COc2c(N3CCN(C)CC3)c(F)cc3c(=O)c(C(=O)OCc4cn(CCCCCCCC(=O)O)nn4)cn1c23 [Compound 6c]	human recombinant HDAC6 (Homo sapiens)	1.5

Q: Need Selectivity index HDAC6/1 of C[C@H]1COc2c(N3CCN(C)CC3)c(F)cc3c(=O)c(C(=O)NCc4cn(CCCCCCCC(=O)O)nn4)cn1c23 [Compound 7c] , thanks.
Result: 1.4

Q: Give the measured Selectivity index HDAC6/1 of C[C@H]1COc2c(N3CCN(C)CC3)c(F)cc3c(=O)c(C(=O)NCc4cn(CCCCCCCC(=O)NO)nn4)cn1c23 [Compound 9c] .
Result: 0.9

Q: Query (compound): C[C@H]1COc2c(N3CCN(C)CC3)c(F)cc3c(=O)c(C(=O)NCc4cn(CCCCCCC(=O)NO)nn4)cn1c23 [Compound 9b] ; field requested: Selectivity index HDAC6/1
Result: 1.4

Q: Please report the recorded Selectivity index HDAC6/1 for C[C@H]1COc2c(N3CCN(C)CC3)c(F)cc3c(=O)c(C(=O)OCc4cn(CCCCCC(=O)NO)nn4)cn1c23 [Compound 8a] .
Result: 1.7

Q: Given the entry C[C@H]1COc2c(N3CCN(C)CC3)c(F)cc3c(=O)c(C(=O)OCc4cn(CCCCCCC(=O)O)nn4)cn1c23 [Compound 6b] , report its measured Selectivity index HDAC6/1.
Result: 4.1

Q: Data request, read-out Selectivity index HDAC6/1, for C[C@H]1COc2c(N3CCN(C)CC3)c(F)cc3c(=O)c(C(=O)NCc4cn(CCCCCC(=O)NO)nn4)cn1c23 [Compound 9a]
Result: 1.5

Q: What Selectivity index HDAC6/1 value was documented for this compound, C[C@H]1COc2c(N3CCN(C)CC3)c(F)cc3c(=O)c(C(=O)OCc4cn(CCCCCCC(=O)NO)nn4)cn1c23 [Compound 8b] ?
Result: 2.2

Q: Entry C[C@H]1COc2c(N3CCN(C)CC3)c(F)cc3c(=O)c(C(=O)NCc4cn(CCCCCCC(=O)O)nn4)cn1c23 [Compound 7b] has what Selectivity index HDAC6/1?
Result: 1.9

Q: Data request, read-out Selectivity index HDAC6/1, for C[C@H]1COc2c(N3CCN(C)CC3)c(F)cc3c(=O)c(C(=O)OCc4cn(CCCCCCCC(=O)NO)nn4)cn1c23 [Compound 8c]
Result: 2.0

Q: I am curious: what Selectivity index HDAC6/1 value has been reported for C[C@H]1COc2c(N3CCN(C)CC3)c(F)cc3c(=O)c(C(=O)NCc4cn(CCCCCC(=O)O)nn4)cn1c23 [Compound 7a] ?
Result: 2.4

Q: # query: Selectivity index HDAC6/1 of entry C[C@H]1COc2c(N3CCN(C)CC3)c(F)cc3c(=O)c(C(=O)OCc4cn(CCCCCC(=O)O)nn4)cn1c23 [Compound 6a]
Result: 3.9
